# experimental-target: Human sodium/glucose co-transporter type 1 (SGLT1) (Homo sapiens (Human), UniProt P13866)
# Sequence (P13866 whole entry): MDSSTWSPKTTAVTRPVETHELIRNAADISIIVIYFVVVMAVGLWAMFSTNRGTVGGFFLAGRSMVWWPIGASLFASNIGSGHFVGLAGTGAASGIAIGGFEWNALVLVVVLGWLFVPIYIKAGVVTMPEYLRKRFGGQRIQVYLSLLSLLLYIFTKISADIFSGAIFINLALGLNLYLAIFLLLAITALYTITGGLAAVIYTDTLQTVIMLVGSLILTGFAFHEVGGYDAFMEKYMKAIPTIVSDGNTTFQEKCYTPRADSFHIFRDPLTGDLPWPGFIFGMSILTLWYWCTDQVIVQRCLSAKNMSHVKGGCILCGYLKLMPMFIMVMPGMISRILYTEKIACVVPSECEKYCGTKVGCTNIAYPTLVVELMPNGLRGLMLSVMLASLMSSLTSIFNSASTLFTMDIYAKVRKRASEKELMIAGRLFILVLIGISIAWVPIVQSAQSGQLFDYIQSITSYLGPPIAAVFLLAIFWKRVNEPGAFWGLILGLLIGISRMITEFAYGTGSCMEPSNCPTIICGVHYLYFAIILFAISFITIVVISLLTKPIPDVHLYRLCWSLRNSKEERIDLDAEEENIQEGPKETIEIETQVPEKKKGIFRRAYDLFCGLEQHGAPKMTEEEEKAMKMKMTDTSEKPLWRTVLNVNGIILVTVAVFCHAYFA
# protocol-notes: In vitro human SGLT1 inhibition assay (14C-AMG uptake)
# reported-conditions: HEK293 cells expressing human HA-SGLT1, 14C-AMG uptake
property-name: IC50

// below: answered compounds
# smiles-repr, IC50
rows = [
    ("CS[C@H]1O[C@@H](c2ccc(C)c(Cc3ccc(/C=C/CCC(=O)NC(C)(C)C(N)=O)cc3)c2)[C@H](O)[C@@H](O)[C@@H]1O", "< 0.01 µM"),
    ("CCC(=O)NCCCCc1ccc(Cc2cc([C@@H]3O[C@H](SC)[C@@H](O)[C@H](O)[C@H]3O)ccc2C)cc1", "< 0.01 µM"),
    ("CS[C@H]1O[C@@H](c2ccc(C)c(Cc3ccc(OCCCC(=O)NCC(N)=O)cc3)c2)[C@H](O)[C@@H](O)[C@@H]1O", "< 0.1 µM"),
    ("CS[C@H]1O[C@@H](c2ccc(C)c(Cc3ccc(CCCC(=O)NC(C)(C)C(N)=O)cc3)c2)[C@H](O)[C@@H](O)[C@@H]1O", "< 0.01 µM"),
    ("CS[C@H]1O[C@@H](c2ccc(C)c(Cc3ccc(OCCNC(=O)NC(C)(C)CO)cc3)c2)[C@H](O)[C@@H](O)[C@@H]1O", "< 0.1 µM"),
    ("CS[C@H]1O[C@@H](c2ccc(C)c(Cc3ccc(CCCC(=O)NC(C)(C)CO)cc3)c2)[C@H](O)[C@@H](O)[C@@H]1O", "< 0.01 µM"),
]

Param readout= IC50; system= Human sodium/glucose co-transporter type 1 (SGLT1) (Homo sapiens (Human), UniProt P13866); entry= CS[C@H]1O[C@@H](c2ccc(Cl)c(Cc3ccc(OCCCNC(=O)NC(C)(C)C(N)=O)cc3)c2)[C@H](O)[C@@H](O)[C@@H]1O ; returns value.
< 0.01 µM

Param readout= IC50; system= Human sodium/glucose co-transporter type 1 (SGLT1) (Homo sapiens (Human), UniProt P13866); entry= CS[C@H]1O[C@@H](c2ccc(C)c(Cc3ccc(CCCC(=O)NC4(C(=O)N5CCN(C)CC5)CC4)cc3)c2)[C@H](O)[C@@H](O)[C@@H]1O ; returns value.
< 0.01 µM

Param readout= IC50; system= Human sodium/glucose co-transporter type 1 (SGLT1) (Homo sapiens (Human), UniProt P13866); entry= CS[C@H]1O[C@@H](c2ccc(C)c(Cc3ccc(CCCC(=O)NCC(=O)N4CCN(C)CC4)cc3)c2)[C@H](O)[C@@H](O)[C@@H]1O ; returns value.
< 0.01 µM

Param readout= IC50; system= Human sodium/glucose co-transporter type 1 (SGLT1) (Homo sapiens (Human), UniProt P13866); entry= CS[C@H]1O[C@@H](c2ccc(C)c(Cc3ccc(/C=C/CC(C(=O)NC(C)(C)C(N)=O)C(=O)NC(C)(C)C(N)=O)cc3)c2)[C@H](O)[C@@H](O)[C@@H]1O ; returns value.
< 0.1 µM

Param readout= IC50; system= Human sodium/glucose co-transporter type 1 (SGLT1) (Homo sapiens (Human), UniProt P13866); entry= CS[C@H]1O[C@@H](c2ccc(C)c(Cc3ccc(CCCCNCC(C)(C)C(N)=O)cc3)c2)[C@H](O)[C@@H](O)[C@@H]1O ; returns value.
< 0.01 µM

Param readout= IC50; system= Human sodium/glucose co-transporter type 1 (SGLT1) (Homo sapiens (Human), UniProt P13866); entry= CS[C@H]1O[C@@H](c2ccc(Cl)c(Cc3ccc(OCCNC(=O)NC(C)(C)CO)cc3)c2)[C@H](O)[C@@H](O)[C@@H]1O ; returns value.
< 0.01 µM

Param readout= IC50; system= Human sodium/glucose co-transporter type 1 (SGLT1) (Homo sapiens (Human), UniProt P13866); entry= CS[C@H]1O[C@@H](c2ccc(C)c(Cc3ccc(OCCCC(=O)NCC(C)(C)C(N)=O)cc3)c2)[C@H](O)[C@@H](O)[C@@H]1O ; returns value.
< 0.1 µM

Param readout= IC50; system= Human sodium/glucose co-transporter type 1 (SGLT1) (Homo sapiens (Human), UniProt P13866); entry= CS[C@H]1O[C@@H](c2ccc(C)c(Cc3ccc(OCC(=O)NC(CO)(CO)CO)cc3)c2)[C@H](O)[C@@H](O)[C@@H]1O ; returns value.
< 0.1 µM

Param readout= IC50; system= Human sodium/glucose co-transporter type 1 (SGLT1) (Homo sapiens (Human), UniProt P13866); entry= CS[C@H]1O[C@@H](c2ccc(C)c(Cc3ccc(CCCC(=O)NCC(C)(C)N)cc3)c2)[C@H](O)[C@@H](O)[C@@H]1O ; returns value.
< 0.01 µM

Param readout= IC50; system= Human sodium/glucose co-transporter type 1 (SGLT1) (Homo sapiens (Human), UniProt P13866); entry= CS[C@H]1O[C@@H](c2ccc(C)c(Cc3ccc(CCCCNC(=O)NC(C)(C)C(N)=O)cc3)c2)[C@H](O)[C@@H](O)[C@@H]1O ; returns value.
< 0.01 µM

The reported numbers originate from patent US9688710B2.
